Data origin, for the record: the supplement of paper PMC7125110

B1: glmS ribozyme (parent)
chain: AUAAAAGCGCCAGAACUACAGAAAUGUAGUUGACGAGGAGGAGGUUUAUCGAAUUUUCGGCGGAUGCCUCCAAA

# Variants of: B1
# measurement_notes: self-cleavage kobs at 40 uM GlcN6P; higher = faster cleavage; RNA array
# measurement_context: with glucosamine-6-phosphate
Fewer inactive variants are shown than the library holds.
assay_readout: self-cleavage kobs at 40 uM GlcN6P

self-cleavage kobs at 40 uM GlcN6P for C16G U54G G60A C70A ?
< 1e-05 s⁻¹

Item under review: A15U A53G . Reported self-cleavage kobs at 40 uM GlcN6P?
0.00019 s⁻¹

For the variant shown here, C8G G63C , give the reported self-cleavage kobs at 40 uM GlcN6P.
< 1e-05 s⁻¹

Which self-cleavage kobs at 40 uM GlcN6P is reported for this variant? G32A U69G
3.77e-05 s⁻¹

Field request: self-cleavage kobs at 40 uM GlcN6P | item: A36G G37C
< 1e-05 s⁻¹

Request the reported self-cleavage kobs at 40 uM GlcN6P associated with A36C G51A
< 1e-05 s⁻¹

Data request, read-out self-cleavage kobs at 40 uM GlcN6P, for G29U G40A U45A
5.2e-05 s⁻¹

Param item = C8U A12C C61G ; retrieve measured self-cleavage kobs at 40 uM GlcN6P.
< 1e-05 s⁻¹

Need self-cleavage kobs at 40 uM GlcN6P, item U47C U55G
9.2e-05 s⁻¹

Consider the variant A33U G43U and give its measured self-cleavage kobs at 40 uM GlcN6P.
< 1e-05 s⁻¹

// lookup self-cleavage kobs at 40 uM GlcN6P for U30A A53G
0.000256 s⁻¹

Fill in the blank: the reported self-cleavage kobs at 40 uM GlcN6P of A15U U47C C61U is ____.
< 1e-05 s⁻¹

Requested read-out: self-cleavage kobs at 40 uM GlcN6P. Entry: C8A G9U
< 1e-05 s⁻¹

Quick one: self-cleavage kobs at 40 uM GlcN6P of C16U C50U ?
< 1e-05 s⁻¹

So what does the record say about self-cleavage kobs at 40 uM GlcN6P for A14C G44C C67G ?
3.15e-05 s⁻¹

What measured self-cleavage kobs at 40 uM GlcN6P goes with A12U C68G C70G ?
< 1e-05 s⁻¹

Record request: self-cleavage kobs at 40 uM GlcN6P value, item G9U A12G G32U G43U U45A
< 1e-05 s⁻¹

Record request: self-cleavage kobs at 40 uM GlcN6P value, item C8G U45C G62A
< 1e-05 s⁻¹

Name the recorded self-cleavage kobs at 40 uM GlcN6P for G13U C16G U31G C34U .
< 1e-05 s⁻¹

# self-cleavage kobs at 40 uM GlcN6P lookup, item U56G C67A
6.65e-05 s⁻¹

Would you kindly share the measured self-cleavage kobs at 40 uM GlcN6P for A36U G66C ?
< 1e-05 s⁻¹

Find the recorded self-cleavage kobs at 40 uM GlcN6P belonging to G32U U46G C61U and report it.
< 1e-05 s⁻¹

Looking for the measured self-cleavage kobs at 40 uM GlcN6P of G41A U57G , can you help?
< 1e-05 s⁻¹

Name the reported self-cleavage kobs at 40 uM GlcN6P value associated with the variant A48G A64G
< 1e-05 s⁻¹
